tested on: T-47D breast; experiment: NCI tumour cell line growth inhibition, 48 h
Please go through the items and note down their TGI.

Please fill in: TGI reported for CNC(=O)c1cc(NC(=O)N(CCC#N)CCN(C(=O)N[C@@H](Cc2ccccc2)C(=O)N[C@@H](CC(C)C)C(=O)NC)c2ccccc2)ccc1OC = > 85.9 µM

Go through the items and report each one's TGI.
1. COC(=O)c1cc(C#N)[nH]c1-c1ccc(C)s1
2. COc1ccc(/C=C/C(=O)Oc2cc(O)cc(O)c2)cc1

> 100 µM
> 100 µM

Go through the items and report each one's TGI.
1. N#CC1=C(N)NC(=O)NC12Nc1ccccc1S2 (stereo not given)
2. COc1cc(-c2nc3sc4c(c3c(=O)[nH]2)CCCCCC4)cc(OC)c1OC
3. CCOC(=O)/C=C(/C(=O)OCC)n1cc(C)c(=O)n(Cc2cn(COCCOC(C)=O)nn2)c1=O
4. Cc1ccc(-c2cc(C3=CC(=O)C=CC3=O)n(-c3ccc(S(N)(=O)=O)cc3)n2)cc1

["> 100 µM", "> 33.2 µM", "> 64.3 µM", "> 100 µM"]

Go through the items and report each one's TGI.
1. O=C(O)c1cc(N=Cc2ccccc2O)cc(C(=O)O)c1
2. CC(CO)C1C[C@H](O)[C@@]2(C)CC(=O)C=C(CO)[C@@H]2C1 (stereo not given in full)
3. c1ccc(-n2nnnc2-c2cccc3ccccc23)cc1
4. O=C1COc2ccc([N+](=O)[O-])cc2C(=O)C1

1. > 100 µM
2. > 100 µM
3. > 100 µM
4. > 10 µM
